Could you please report measured KD for the items listed next?
- Tested on: GR wild type (xpt-pbuX guanine riboswitch aptamer) (RNA, riboswitch) GGACAUAUAAUCGCGUGGAUAUGGCACGCAAGUUUCUACCGGGCACCGUAAAUGUCCGACUAUGUCCA
- ASSAY_NOTES: ITC
- CONDITION: 100 mM KCl, 20 mM MgCl2, 50 mM K-HEPES; pH 7.5, 25 °C, single-site fit

CC(C)(C)C(=O)Nc1nc2[nH]cnc2c(=O)[nH]1: 230,000 ± 10,000 nM
Nc1nc2c(=O)[nH]cnc2[nH]1: 14,000 ± 1000 nM
Nc1nc2[nH]c(O)nc2c(=O)[nH]1: 10 ± 4 nM

Provide the reported KD of each entry below, same order.
1. CC1CC(O)n2c(nc3[nH]cnc3c2=O)N1 (centres unmarked)
2. Nc1nc(OCC2CCCCC2)c2[nH]cnc2n1
3. CC(=O)Nc1nc2[nH]cnc2c(=O)[nH]1
4. CNc1nc2[nH]cnc2c(=O)[nH]1
5. Nc1nc(NC2CC2)c2nc[nH]c2n1

Output line:
1: 79,000 ± 1000 nM; 2: 17,000 ± 1000 nM; 3: 300 ± 10 nM; 4: 17,000 ± 1000 nM; 5: 25,000 ± 3000 nM
